Test system: MCF7 breast
ASSAY INFO: NCI tumour cell line growth inhibition, 48 h
Rule: Yes for TGI not less than 10 µM, No for anything less.

Reference set, count: 5
MOLECULE: Nc1ncn([C@H]2CC(O)[C@@H](CO)S2)c(=O)n1 (stereo not given in full)
LABEL VALUE: Yes

MOLECULE: O=CN1CCN(c2ccc3ccc(=O)[nH]c3n2)CC1
LABEL VALUE: Yes

MOLECULE: O=c1c(-c2nc3ccccc3c3ccccc3c2=O)nc2ccccc2c2ccccc12
LABEL VALUE: Yes

MOLECULE: CC1[C@@]2(CCC(C)(C)O2)O[C@@H]2C=C3C4CCC5Cc6nc7c(nc6C[C@@]5(C)C4C[C@H](O)[C@@]3(C)[C@]12O)CC1CCC2C3=C[C@H]4O[C@@]5(O[C@@](C)(CO)C[C@@H]5O)C(C)[C@@]4(O)[C@]3(C)[C@@H](O)CC2[C@]1(C)C7 (stereo not given in full)
LABEL VALUE: No

MOLECULE: COCN1C(=O)[C@@H]2CCCN2C(=O)c2ccc(N)cc21
LABEL VALUE: Yes

Is reported TGI greater than or equal to 10 µM here: `O=C(/C=C/c1ccc(OCc2ccccc2)cc1)NCc1ccc(C(=O)NCCc2ccccc2)cc1` Yes

Is reported TGI greater than or equal to 10 µM here: COC1C(OC(=O)c2ccc(C)[nH]2)C(O)C(Oc2ccc3c(O)c(NC(=O)c4ccc(O)c(CC=C(C)C)c4)c(=O)oc3c2Cl)OC1(C)C (stereo not given) Yes

Is reported TGI greater than or equal to 10 µM here: `Cn1cc(-c2cc(-c3cn(C)c4ccccc34)[nH]n2)c2ccccc21` Yes

---

Test system: MDA-MB-435
ASSAY INFO: NCI tumour cell line growth inhibition, 48 h
MEASURED ATTRIBUTE: TGI (µM)
Give the number; µM is assumed, so skip it.

COMPOUND STRUCTURE: c1ccc(C(Oc2noc3ccccc23)c2ccccc2)cc1
TGI (µM): 75.4
--
COMPOUND STRUCTURE: NC(=NCCCCCCN=C(N)/N=C(\N)Nc1ccc(Cl)cc1)/N=C(\N)Nc1ccc(Cl)cc1
TGI (µM): 5.94
--
COMPOUND STRUCTURE: O=c1cc(NNc2cccc3ccccc23)[nH]c(=O)[nH]1
TGI (µM): 30.7

Quick note, TGI for `CCn1cc(C(=O)O)c(=O)c2cc(F)c(N3CCN(S(=O)(=O)c4ccc(Cl)cc4Cl)CC3)cc21` landed at 4.44

---

System: SF-539 CNS
ASSAY INFO: NCI tumour cell line growth inhibition, 48 h
MEASURED ATTRIBUTE: TGI

In the examples that follow, each entry is paired with its recorded TGI.
COMPOUND STRUCTURE: COc1ccc(OC)c2c(C(C)=O)cccc12
MEASURED ATTRIBUTE: TGI
READOUT VALUE: > 100 µM
//
COMPOUND STRUCTURE: Clc1ccc(-c2cn3c(nc4ccccc43)c(-c3ccccc3)n2)cc1
MEASURED ATTRIBUTE: TGI
READOUT VALUE: > 69 µM
//
COMPOUND STRUCTURE: COc1cc2c(oc(=O)c3c4occc4cc(OC)c23)c2cccc(O)c12
MEASURED ATTRIBUTE: TGI
READOUT VALUE: > 100 µM
//
COMPOUND STRUCTURE: CC1(C)CC(O)CC(C)(C)N1O
MEASURED ATTRIBUTE: TGI
READOUT VALUE: > 100 µM
//
COMPOUND STRUCTURE: Cc1cccc2c(=O)c3c(O)cc(O)cc3n(C)c12
MEASURED ATTRIBUTE: TGI
READOUT VALUE: > 100 µM

Quick note, TGI for `O=C(N/C(=C\c1ccc([N+](=O)[O-])cc1)c1nc2ccccc2s1)c1ccccc1` landed at 55.1 µM
